# PROTOCOL DETAILS: Selectivity index, ratio of IC50 for human THP-1 cells to IC50 for static antileishmanial activity against Leishmania major NIH-S (MHOM/SN/74/Seidman) amastigote
# Format: toxicity, cell-based
# COND: read-out: Ratio IC50
OBSERVATION TYPE: selectivity ratio
Simply state the number, no unit and no words.

{"columns": ["MOL", "READING"],
 "data": [
  ["C#CCn1cc(/C=N\\N=C\\c2ccc([N+](=O)[O-])s2)c2cc([N+](=O)[O-])ccc21", 278]
]}

Now for the compound whose selectivity ratio we want.
Using the record for C#CCn1cc(/C=N\N=C\c2ccc([N+](=O)[O-])o2)c2cc([N+](=O)[O-])ccc21 , report its selectivity ratio. 60
